# systemTested: T1, human TGFβ1 (human, UniProt P01137 279-390)
# T1 construct: also called TGFβ1 homodimer
# T1 sequence (P01137 279-390 limits assumed): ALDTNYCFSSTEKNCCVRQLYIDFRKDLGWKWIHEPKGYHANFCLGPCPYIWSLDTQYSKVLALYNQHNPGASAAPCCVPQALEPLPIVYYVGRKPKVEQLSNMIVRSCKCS
# testSummary: Biacore off-rate vs wt GC1008
resultType: kd mutant/kd wt
Respond using a number only.

[[record]]
binder = "E74W (antibody, V domains shown, GC1008 IgG4 variant) VH: QVQLVQSGAEVKKPGSSVKVSCKASGYTFSSNVISWVRQAPGQGLEWMGGVIPIVDIANYAQRFKGRVTITADWSTSTTYMELSSLRSEDTAVYYCASTLGLVLDAMDYWGQGTLVTVSS VL: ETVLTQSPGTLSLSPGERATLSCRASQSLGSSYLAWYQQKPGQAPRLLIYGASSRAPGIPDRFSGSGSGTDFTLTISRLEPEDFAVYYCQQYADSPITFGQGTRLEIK"
experimentalvalue = 0.8

[[record]]
binder = "D56R (antibody, V domains shown, GC1008 IgG4 variant) VH: QVQLVQSGAEVKKPGSSVKVSCKASGYTFSSNVISWVRQAPGQGLEWMGGVIPIVRIANYAQRFKGRVTITADESTSTTYMELSSLRSEDTAVYYCASTLGLVLDAMDYWGQGTLVTVSS VL: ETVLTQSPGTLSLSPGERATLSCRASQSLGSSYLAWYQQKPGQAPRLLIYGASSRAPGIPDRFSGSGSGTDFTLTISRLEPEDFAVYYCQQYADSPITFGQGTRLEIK"
experimentalvalue = 1

[[record]]
binder = "S30E (antibody, V domains shown, GC1008 IgG4 variant) VH: QVQLVQSGAEVKKPGSSVKVSCKASGYTFESNVISWVRQAPGQGLEWMGGVIPIVDIANYAQRFKGRVTITADESTSTTYMELSSLRSEDTAVYYCASTLGLVLDAMDYWGQGTLVTVSS VL: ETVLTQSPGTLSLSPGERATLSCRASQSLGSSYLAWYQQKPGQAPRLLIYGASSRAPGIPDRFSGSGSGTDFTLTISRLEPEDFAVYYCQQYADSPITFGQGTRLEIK"
experimentalvalue = 1.2

[[record]]
binder = "I54F (antibody, V domains shown, GC1008 IgG4 variant) VH: QVQLVQSGAEVKKPGSSVKVSCKASGYTFSSNVISWVRQAPGQGLEWMGGVIPFVDIANYAQRFKGRVTITADESTSTTYMELSSLRSEDTAVYYCASTLGLVLDAMDYWGQGTLVTVSS VL: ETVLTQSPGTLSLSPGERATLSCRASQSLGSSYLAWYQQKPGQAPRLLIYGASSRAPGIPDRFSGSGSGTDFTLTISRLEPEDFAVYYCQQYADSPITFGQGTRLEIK"
experimentalvalue = 1.3

[[record]]
binder = "E74L (antibody, V domains shown, GC1008 IgG4 variant) VH: QVQLVQSGAEVKKPGSSVKVSCKASGYTFSSNVISWVRQAPGQGLEWMGGVIPIVDIANYAQRFKGRVTITADLSTSTTYMELSSLRSEDTAVYYCASTLGLVLDAMDYWGQGTLVTVSS VL: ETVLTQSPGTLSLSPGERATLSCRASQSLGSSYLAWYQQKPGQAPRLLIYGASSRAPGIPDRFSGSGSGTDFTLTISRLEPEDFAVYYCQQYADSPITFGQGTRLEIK"
experimentalvalue = 0.8


// kd mutant/kd wt lookup, key: S31W (antibody, V domains shown, GC1008 IgG4 variant) VH: QVQLVQSGAEVKKPGSSVKVSCKASGYTFSWNVISWVRQAPGQGLEWMGGVIPIVDIANYAQRFKGRVTITADESTSTTYMELSSLRSEDTAVYYCASTLGLVLDAMDYWGQGTLVTVSS VL: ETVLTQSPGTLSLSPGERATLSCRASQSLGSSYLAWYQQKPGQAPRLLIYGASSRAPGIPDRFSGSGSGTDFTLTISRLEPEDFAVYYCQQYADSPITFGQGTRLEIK 1.7

// kd mutant/kd wt lookup, key: I54T (antibody, V domains shown, GC1008 IgG4 variant) VH: QVQLVQSGAEVKKPGSSVKVSCKASGYTFSSNVISWVRQAPGQGLEWMGGVIPTVDIANYAQRFKGRVTITADESTSTTYMELSSLRSEDTAVYYCASTLGLVLDAMDYWGQGTLVTVSS VL: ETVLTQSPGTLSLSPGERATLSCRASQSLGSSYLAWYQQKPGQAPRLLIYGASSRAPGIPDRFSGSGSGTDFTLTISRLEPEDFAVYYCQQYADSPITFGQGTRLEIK 2.1

// kd mutant/kd wt lookup, key: I54R (antibody, V domains shown, GC1008 IgG4 variant) VH: QVQLVQSGAEVKKPGSSVKVSCKASGYTFSSNVISWVRQAPGQGLEWMGGVIPRVDIANYAQRFKGRVTITADESTSTTYMELSSLRSEDTAVYYCASTLGLVLDAMDYWGQGTLVTVSS VL: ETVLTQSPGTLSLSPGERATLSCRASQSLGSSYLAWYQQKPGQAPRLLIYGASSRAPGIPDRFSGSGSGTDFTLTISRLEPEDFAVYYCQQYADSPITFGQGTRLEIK 7.6

// kd mutant/kd wt lookup, key: I52L (antibody, V domains shown, GC1008 IgG4 variant) VH: QVQLVQSGAEVKKPGSSVKVSCKASGYTFSSNVISWVRQAPGQGLEWMGGVLPIVDIANYAQRFKGRVTITADESTSTTYMELSSLRSEDTAVYYCASTLGLVLDAMDYWGQGTLVTVSS VL: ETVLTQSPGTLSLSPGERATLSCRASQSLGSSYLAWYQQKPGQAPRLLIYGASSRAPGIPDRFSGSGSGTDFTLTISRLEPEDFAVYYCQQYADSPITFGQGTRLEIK 3

Hello, the source for this data is patent US20170342144A1, in case you need it.
